// provenance: paper PMC10198994

Assay Text: Static equilibrium solubility of HCQS in supercritical carbon dioxide (UV-vis spectrophotometer)
Type: physicochemical
Applied Conditions: thermodynamic from solid, scCO2, 328 K, 210 bar; read-out: Equilibrium solubility, S
Procedure: SCF-solubility of the drugs was experimentally measured via two broad classes of saturated solution-based methods, where solubility measurement can be done either (1) statically or (2) dynamically. […] The solubilities were measured with the help of an equilibrium cell. Thermodynamically, the method employed may be regarded as an isobaric-isothermal method. […]
Where a name gives a salt, the structure may show the parent alone.
Recorded Endpoint: solubility thermodynamic at 1 h (µg/mL)

                                   molecule  numeric_readout
0  CCN(CCO)CCCC(C)Nc1ccnc2cc(Cl)ccc12 (stereo not shown) [HCQS, Hydroxychloroquine sulfate]              207

###

Assay Text: Static equilibrium solubility of HCQS in supercritical carbon dioxide (UV-vis spectrophotometer)
Assay type: physicochemical
Applied Conditions: thermodynamic from solid, scCO2, 338 K, 180 bar; read-out: Equilibrium solubility, S
Procedure: SCF-solubility of the drugs was experimentally measured via two broad classes of saturated solution-based methods, where solubility measurement can be done either (1) statically or (2) dynamically. […] The solubilities were measured with the help of an equilibrium cell. Thermodynamically, the method employed may be regarded as an isobaric-isothermal method. […]
Where a name gives a salt, the structure may show the parent alone.
Recorded Endpoint: solubility thermodynamic at 1 h

In [3]: df
Out[3]:
                                   compound     result
0  CCN(CCO)CCCC(C)Nc1ccnc2cc(Cl)ccc12 (stereo not shown) [HCQS, Hydroxychloroquine sulfate]  182 µg/mL

###

Assay Text: Static equilibrium solubility of HCQS in supercritical carbon dioxide (UV-vis spectrophotometer)
Type: physicochemical
Applied Conditions: thermodynamic from solid, scCO2, 328 K, 270 bar; read-out: Equilibrium solubility, S
Description: SCF-solubility of the drugs was experimentally measured via two broad classes of saturated solution-based methods, where solubility measurement can be done either (1) statically or (2) dynamically. […] The solubilities were measured with the help of an equilibrium cell. Thermodynamically, the method employed may be regarded as an isobaric-isothermal method. […]
Counter-ions that a name gives are not always drawn.
Recorded Endpoint: solubility thermodynamic at 1 h (µg/mL)

                                   compound  numeric_readout
0  CCN(CCO)CCCC(C)Nc1ccnc2cc(Cl)ccc12 (stereo not shown) [HCQS, Hydroxychloroquine sulfate]              356

###

Assay Text: Static equilibrium solubility of HCQS in supercritical carbon dioxide (UV-vis spectrophotometer)
Assay type: physicochemical
Applied Conditions: thermodynamic from solid, scCO2, 308 K, 180 bar; read-out: Equilibrium solubility, S
Counter-ions that a name gives are not always drawn.
Recorded Endpoint: solubility thermodynamic at 1 h (µg/mL)

In [3]: df
Out[3]:
                                   compound  numeric_readout
0  CCN(CCO)CCCC(C)Nc1ccnc2cc(Cl)ccc12 (stereo not shown) [HCQS, Hydroxychloroquine sulfate]             49.7

###

Assay Text: Static equilibrium solubility of HCQS in supercritical carbon dioxide (UV-vis spectrophotometer)
Assay type: physicochemical
Applied Conditions: thermodynamic from solid, scCO2, 328 K, 150 bar; read-out: Equilibrium solubility, S
Experimental: SCF-solubility of the drugs was experimentally measured via two broad classes of saturated solution-based methods, where solubility measurement can be done either (1) statically or (2) dynamically. […] The solubilities were measured with the help of an equilibrium cell. Thermodynamically, the method employed may be regarded as an isobaric-isothermal method. […]
Where a name gives a salt, the structure may show the parent alone.
Recorded Endpoint: solubility thermodynamic at 1 h (µg/mL)

                                   molecule  unit_info  numeric_readout
0  CCN(CCO)CCCC(C)Nc1ccnc2cc(Cl)ccc12 (stereo not shown) [HCQS, Hydroxychloroquine sulfate]      µg/mL              103
